These data points were gathered from patent US20150025074A1.

# Tested on: medulloblastoma cells derived from resistant Ptch+/−Hic+/− medulloblastoma tumors
# Experimental Details: ex-vivo medulloblastoma proliferation assay (48 h, 3H thymidine incorporation), resistant tumors
# Type: cell-based, mouse
# Experimental Setup: Mus musculus, Medulloblastoma cell; Tumor type Resistant; single agent; 48 h, 3H thymidine; read-out: IC50, proliferation of medulloblastoma cells
# Experimental: The effect of mTor inhibitors (e.g., compounds such as Compound A) on the proliferation of medulloblastoma cells derived from sensitive and resistant medulloblastoma tumors was evaluated by using an “ex-vivo medulloblastoma proliferation assay. Sensitive tumors means tumors (e.g., medulloblastomas) which, due to hedgehog pathway activation, respond to treatment with a smoothened inhibitor anti-cancer regimen. […]
Reported IC50 values for a set of molecules
Field: numeric (µM). Do not append units.

# Molecule, Units Of Measure, Value
data = [
    ("CO[C@H]1C[C@@H]2CC[C@@H](C)[C@@](O)(O2)C(=O)C(=O)N2CCCC[C@H]2C(=O)O[C@H]([C@H](C)C[C@@H]2CC[C@@H](OCCO)[C@H](OC)C2)CC(=O)[C@H](C)/C=C(\\C)[C@@H](O)[C@@H](OC)C(=O)[C@H](C)C[C@H](C)/C=C/C=C/C=C/1C [Compound A]", "µM", 0.002),
]

Here's the next entry for you.
Q) Which value of IC50 has been reported for Cc1c(C(=O)Nc2ccc(N3C[C@@H](C)O[C@@H](C)C3)nc2)cccc1-c1ccc(OC(F)(F)F)cc1 [Compound 1] in the records?
A) 9.08
